- System: SK-N-SH
- assay_overview: Cytotoxicity against human SK-N-SH cells assessed as growth inhibition after 48 hrs by SRB assay
- Assay type: functional, cell-based
quantity: IC50 (µM)

- compound: "COc1cc([C@@H]2c3cc4c(cc3[C@@H](O[C@@H]3O[C@@H]5CO[C@@H](C)O[C@H]5[C@H](O)[C@H]3O)[C@H]3COC(=O)[C@H]23)OCO4)cc(OC)c1O [ETOPOSIDE]"
  quantity: "IC50"
  value_observed: 9.03
- compound: "COc1cc([C@@H]2c3cc4c(cc3[C@@H](n3cc(COc5ccc(/C=C/C(=O)c6ccccc6)cc5)nn3)[C@H]3COC(=O)[C@H]23)OCO4)cc(OC)c1OC"
  quantity: "IC50"
  value_observed: 25.6
- compound: "COc1cc([C@@H]2c3cc4c(cc3[C@@H](n3cc(COc5ccc(C(=O)/C=C/c6cccc(C)c6)cc5)nn3)[C@H]3COC(=O)[C@H]23)OCO4)cc(OC)c1O"
  quantity: "IC50"
  value_observed: 13.5
- compound: "COc1cc([C@@H]2c3cc4c(cc3[C@@H](n3cc(COc5ccc(C(C)=O)cc5)nn3)[C@H]3COC(=O)[C@H]23)OCO4)cc(OC)c1O"
  quantity: "IC50"
  value_observed: 11.6

----------
Measured pIC50, listed per entry for reference.
- System: SW-620
- assay_overview: Cytotoxicity against human SW620 cells assessed as growth inhibition after 48 hrs by SRB assay
- Type: functional, cell-based
- assay_setup: SW-620, 48 h
pIC50: −log10 of the molar value.

- molecule: "COc1cc([C@@H]2c3cc4c(cc3[C@@H](n3cc(COc5ccc(C(=O)/C=C/c6ccc(F)cc6)cc5)nn3)[C@H]3COC(=O)[C@H]23)OCO4)cc(OC)c1OC"
  pIC50: 5.62
- molecule: "COc1cc([C@@H]2c3cc4c(cc3[C@@H](n3cc(COc5ccc(/C=C/C(=O)c6ccccc6)cc5)nn3)[C@H]3COC(=O)[C@H]23)OCO4)cc(OC)c1OC"
  pIC50: 5.04
- molecule: "COc1cc([C@@H]2c3cc4c(cc3[C@@H](n3cc(COc5ccc(C(=O)/C=C/c6ccccc6F)cc5)nn3)[C@H]3COC(=O)[C@H]23)OCO4)cc(OC)c1O"
  pIC50: 4.90
- molecule: "COc1cc([C@@H]2c3cc4c(cc3[C@@H](O[C@@H]3O[C@@H]5CO[C@@H](C)O[C@H]5[C@H](O)[C@H]3O)[C@H]3COC(=O)[C@H]23)OCO4)cc(OC)c1O [ETOPOSIDE]"
  pIC50: 4.88

----------
- Test system: SW-620
- assay_overview: Cytotoxicity against human SW620 cells assessed as growth inhibition after 48 hrs by SRB assay
- Type: functional, cell-based
- assay_setup: SW-620, 48 h

- structure_string: "COc1cc([C@@H]2c3cc4c(cc3[C@@H](n3cc(COc5ccc(C(C)=O)cc5)nn3)[C@H]3COC(=O)[C@H]23)OCO4)cc(OC)c1OC"
  IC50, µM: 14.6
- structure_string: "COc1cc([C@@H]2c3cc4c(cc3[C@@H](n3cc(COc5ccc(C(C)=O)cc5)nn3)[C@H]3COC(=O)[C@H]23)OCO4)cc(OC)c1O"
  IC50, µM: 11.6
- structure_string: "COc1cc([C@@H]2c3cc4c(cc3[C@@H](n3cc(COc5ccc(C(=O)/C=C/c6ccccc6)cc5)nn3)[C@H]3COC(=O)[C@H]23)OCO4)cc(OC)c1O"
  IC50, µM: 0.64
- structure_string: "COc1cc([C@@H]2c3cc4c(cc3[C@@H](n3cc(COc5ccc(C(=O)/C=C/c6ccc(F)cc6)cc5)nn3)[C@H]3COC(=O)[C@H]23)OCO4)cc(OC)c1O"
  IC50, µM: 0.35
- structure_string: "COc1cc(/C=C/C(C)=O)ccc1OCc1cn([C@@H]2c3cc4c(cc3[C@@H](c3cc(OC)c(OC)c(OC)c3)[C@H]3C(=O)OC[C@@H]32)OCO4)nn1"
  IC50, µM: 3.41
- structure_string: "COc1ccc(/C=C/C(=O)c2ccc(OCc3cn([C@@H]4c5cc6c(cc5[C@@H](c5cc(OC)c(O)c(OC)c5)[C@H]5C(=O)OC[C@@H]54)OCO6)nn3)cc2)cc1"
  IC50, µM: 10.3

----------
- Tested on: SW-620
- assay_overview: Cytotoxicity against human SW620 cells assessed as growth inhibition after 48 hrs by SRB assay
- Format: functional, cell-based
- assay_setup: SW-620, 48 h
IC50 less than 5 µM is class 1; IC50 greater than or equal to 5 µM is class 0.

- structure_string: "COc1ccc(/C=C/C(=O)c2ccc(OCc3cn([C@@H]4c5cc6c(cc5[C@@H](c5cc(OC)c(OC)c(OC)c5)[C@H]5C(=O)OC[C@@H]54)OCO6)nn3)cc2)cc1"
  category: "class 0"
- structure_string: "COc1cc([C@@H]2c3cc4c(cc3[C@@H](n3cc(COc5ccc(C(=O)/C=C/c6cccc(F)c6)cc5)nn3)[C@H]3COC(=O)[C@H]23)OCO4)cc(OC)c1O"
  category: "class 0"
- structure_string: "COc1cc([C@@H]2c3cc4c(cc3[C@@H](n3cc(COc5ccc(/C=C/C(=O)c6ccccc6)cc5)nn3)[C@H]3COC(=O)[C@H]23)OCO4)cc(OC)c1O"
  category: "class 1"
- structure_string: "COc1cc([C@@H]2c3cc4c(cc3[C@@H](n3cc(COc5ccc(C(=O)/C=C/c6ccccc6F)cc5)nn3)[C@H]3COC(=O)[C@H]23)OCO4)cc(OC)c1OC"
  category: "class 0"
- structure_string: "COc1cc([C@@H]2c3cc4c(cc3[C@@H](n3cc(COc5ccc(/C=C/C(C)=O)cc5)nn3)[C@H]3COC(=O)[C@H]23)OCO4)cc(OC)c1OC"
  category: "class 0"
- structure_string: "COc1cc([C@@H]2c3cc4c(cc3[C@@H](n3cc(COc5ccc(C(=O)/C=C/c6ccccc6)cc5)nn3)[C@H]3COC(=O)[C@H]23)OCO4)cc(OC)c1OC"
  category: "class 1"
- structure_string: "COc1cc(/C=C/C(C)=O)ccc1OCc1cn([C@@H]2c3cc4c(cc3[C@@H](c3cc(OC)c(O)c(OC)c3)[C@H]3C(=O)OC[C@@H]32)OCO4)nn1"
  category: "class 0"
- structure_string: "COc1cc([C@@H]2c3cc4c(cc3[C@@H](n3cc(COc5ccc(C(=O)/C=C/c6cccc(F)c6)cc5)nn3)[C@H]3COC(=O)[C@H]23)OCO4)cc(OC)c1OC"
  category: "class 0"
- structure_string: "COc1cc([C@@H]2c3cc4c(cc3[C@@H](n3cc(COc5ccc(C(=O)/C=C/c6cccc(C)c6)cc5)nn3)[C@H]3COC(=O)[C@H]23)OCO4)cc(OC)c1OC"
  category: "class 0"
- structure_string: "COc1cc([C@@H]2c3cc4c(cc3[C@@H](n3cc(COc5ccc(C(=O)/C=C/c6cccc(C)c6)cc5)nn3)[C@H]3COC(=O)[C@H]23)OCO4)cc(OC)c1O"
  category: "class 0"
- structure_string: "COc1cc([C@@H]2c3cc4c(cc3[C@@H](n3cc(COc5ccc(/C=C/C(C)=O)cc5)nn3)[C@H]3COC(=O)[C@H]23)OCO4)cc(OC)c1O"
  category: "class 0"

----------
- System: DU-145
- assay_overview: Cytotoxicity against human DU145 cells assessed as growth inhibition after 48 hrs by SRB assay
- Type: functional, cell-based
- assay_setup: DU-145, 48 h
// reported IC50 for each item listed
quantity: IC50

- structure_string: "COc1cc([C@@H]2c3cc4c(cc3[C@@H](n3cc(COc5ccc(/C=C/C(C)=O)cc5)nn3)[C@H]3COC(=O)[C@H]23)OCO4)cc(OC)c1O"
  quantity: "IC50"
  value_observed: "12 µM"
- structure_string: "COc1ccc(/C=C/C(=O)c2ccc(OCc3cn([C@@H]4c5cc6c(cc5[C@@H](c5cc(OC)c(OC)c(OC)c5)[C@H]5C(=O)OC[C@@H]54)OCO6)nn3)cc2)cc1"
  quantity: "IC50"
  value_observed: "10.2 µM"
- structure_string: "COc1cc([C@@H]2c3cc4c(cc3[C@@H](n3cc(COc5ccc(C(=O)/C=C/c6cccc(F)c6)cc5)nn3)[C@H]3COC(=O)[C@H]23)OCO4)cc(OC)c1OC"
  quantity: "IC50"
  value_observed: "13.3 µM"

----------
Recorded measurements of IC50, one per entry
- System: DU-145
- assay_overview: Cytotoxicity against human DU145 cells assessed as growth inhibition after 48 hrs by SRB assay
- Type: functional, cell-based
- assay_setup: DU-145, 48 h
quantity: IC50 (µM)

- compound: "COc1ccc(/C=C/C(=O)c2ccc(OCc3cn([C@@H]4c5cc6c(cc5[C@@H](c5cc(OC)c(O)c(OC)c5)[C@H]5C(=O)OC[C@@H]54)OCO6)nn3)cc2)cc1"
  value_observed: 12.5
- compound: "COc1cc([C@@H]2c3cc4c(cc3[C@@H](n3cc(COc5ccc(C(=O)/C=C/c6ccc(F)cc6)cc5)nn3)[C@H]3COC(=O)[C@H]23)OCO4)cc(OC)c1OC"
  value_observed: 6.5
- compound: "COc1cc([C@@H]2c3cc4c(cc3[C@@H](n3cc(COc5ccc(C(=O)/C=C/c6ccccc6F)cc5)nn3)[C@H]3COC(=O)[C@H]23)OCO4)cc(OC)c1OC"
  value_observed: 20.2
- compound: "COc1cc([C@@H]2c3cc4c(cc3[C@@H](n3cc(COc5ccc(/C=C/C(C)=O)cc5)nn3)[C@H]3COC(=O)[C@H]23)OCO4)cc(OC)c1OC"
  value_observed: 11.3
- compound: "COc1cc([C@@H]2c3cc4c(cc3[C@@H](n3cc(COc5ccc(/C=C/C(=O)c6ccccc6)cc5)nn3)[C@H]3COC(=O)[C@H]23)OCO4)cc(OC)c1O"
  value_observed: 5.45
- compound: "COc1cc([C@@H]2c3cc4c(cc3[C@@H](n3cc(COc5ccc(C(=O)/C=C/c6ccccc6)cc5)nn3)[C@H]3COC(=O)[C@H]23)OCO4)cc(OC)c1OC"
  value_observed: 30.2
- compound: "COc1cc([C@@H]2c3cc4c(cc3[C@@H](n3cc(COc5ccc(C(=O)/C=C/c6ccccc6)cc5)nn3)[C@H]3COC(=O)[C@H]23)OCO4)cc(OC)c1O"
  value_observed: 12
- compound: "COc1cc([C@@H]2c3cc4c(cc3[C@@H](n3cc(COc5ccc(/C=C/C(=O)c6ccccc6)cc5)nn3)[C@H]3COC(=O)[C@H]23)OCO4)cc(OC)c1OC"
  value_observed: 30
- compound: "COc1cc(/C=C/C(C)=O)ccc1OCc1cn([C@@H]2c3cc4c(cc3[C@@H](c3cc(OC)c(O)c(OC)c3)[C@H]3C(=O)OC[C@@H]32)OCO4)nn1"
  value_observed: 6.5
- compound: "COc1cc([C@@H]2c3cc4c(cc3[C@@H](O[C@@H]3O[C@@H]5CO[C@@H](C)O[C@H]5[C@H](O)[C@H]3O)[C@H]3COC(=O)[C@H]23)OCO4)cc(OC)c1O [ETOPOSIDE]"
  value_observed: 16.4
- compound: "COc1cc([C@@H]2c3cc4c(cc3[C@@H](n3cc(COc5ccc(C(=O)/C=C/c6ccc(F)cc6)cc5)nn3)[C@H]3COC(=O)[C@H]23)OCO4)cc(OC)c1O"
  value_observed: 12
